methodDescription: Viability qHTS for spleen associated tyrosine kinase inhibitor (SYKi) naive MV4-11 cells (AID 1963823); note: nearly all actives have a fitted effect of over 40% in size
assaySetup: MV4-11 AML viability, CellTiter-Glo luminescence, 72 h; series mostly up to 45 µM
Results filed as inconclusive are left out. Active and inactive are the calls of the source. Calls come from the whole dose curve; as a rule, active = well fitted cell-killing curve with a large enough effect; inconclusive = small, poorly fitted or top-dose-only effect, or effect the other way; inactive = no such curve, though single readings can be large or run the other way.
Write down the outcome that applies. Available outcomes: T (active), F (inactive)

Problem: Assay outcome for "OC[C@H]1O[C@@H](OCCc2ccc(O)cc2)[C@H](O[C@@H]2OC[C@](O)(CO)[C@H]2O)[C@@H](O)[C@@H]1O" : what was it?
Solution: F

Problem: Assay outcome for CN1[C@@H]2CC(OC(=O)[C@H](CO)c3ccccc3)C[C@H]1[C@@H]1O[C@@H]12 (some centres undefined) : what was it?
Solution: F

Problem: Assay outcome for "Cc1cnc(Nc2cccc(CN3CCOCC3)c2)nc1Nc1cccc(S(=O)(=O)NC(C)(C)C)c1" : what was it?
Solution: T

Problem: Assay outcome for "Cc1nc(-c2cn3c(n2)-c2ccc(-c4cnn(C(C)(C)C(N)=O)c4)cc2OCC3)n(C(C)C)n1" : what was it?
Solution: T

Problem: Assay outcome for "CO/N=C(\C(=O)O)c1csc(NC(=O)CCl)n1" : what was it?
Solution: F

Problem: Assay outcome for CN1CCN(C2CCC(n3cc(-c4ccc(Oc5ccccc5)cc4)c4c(N)ncnc43)CC2)CC1 (centres undefined) : what was it?
Solution: T

Problem: Assay outcome for "COc1cc(OC)cc(N2CCN(C(=O)Nc3nc4cc(F)ccc4nc3OC)CC2)c1" : what was it?
Solution: T

Problem: Assay outcome for "C[C@@H]1CCNC(=O)c2cc3ccc(C(=O)Nc4nc5ccccc5n4CCCN(C)C)cc3n21" : what was it?
Solution: T

Problem: Assay outcome for "CC1(C)O[C@@H]2C[C@H]3[C@@H]4C[C@H](F)C5=CC(=O)C=C[C@]5(C)[C@@]4(F)[C@@H](O)C[C@]3(C)[C@]2(C(=O)CO)O1" : what was it?
Solution: F

Problem: Assay outcome for "O=C(O)c1ccccc1NCCc1ccccc1" : what was it?
Solution: F

Problem: Assay outcome for CCCCN(CCCC)CC(O)c1cc(Cl)cc2c1-c1ccc(Cl)cc1/C2=C/c1ccc(Cl)cc1 (centres undefined) : what was it?
Solution: T

Problem: Assay outcome for "COc1cc(C(=S)N2CCOCC2)cc(OC)c1OC" : what was it?
Solution: F

Problem: Assay outcome for "NC(=O)c1ccc2nc(-c3ccc(Oc4ccc(Cl)cc4)cc3)[nH]c2c1" : what was it?
Solution: T

Problem: Assay outcome for C=CC(C)(CC/C=C(\C)CC/C=C(\C)CC(O)/C=C(\C)C(=O)O)O[C@@H]1O[C@H](CO)[C@@H](O)[C@H](O)[C@H]1O[C@@H]1O[C@H](CO)[C@@H](O)[C@H](O)[C@H]1O (some centres undefined) : what was it?
Solution: F

Measured values drawn from PubChem BioAssay (NCATS) for this set.
